- Tested on: SK-ES-1
- assayComment: relative viability vs DMSO control (72 h) (fraction); higher = more viable cells
- testSettings: 10 µM
testReadout: relative viability
Give bare numbers.

Examples with their reported relative viability follow.
CC(C)NC[C@@H](C(=O)N1CCN(c2ncnc3c2[C@H](C)C[C@H]3O)CC1)c1ccc(Cl)cc1    0.473
Cc1cccc(-c2nn3c(c2-c2ccnc4ccc(C(N)=O)cc24)CCC3)n1    0.959
COC(=O)[C@@]1(O)C[C@H]2O[C@]1(C)n1c3ccccc3c3c4c(c5c6ccccc6n2c5c31)C(=O)NC4 [K-252a]    0.114
COc1cc(CCc2cc(NC(=O)c3ccc(N4CC(C)NC(C)C4)cc3)n[nH]2)cc(OC)c1 (stereo not given)    0.141

Now look at this one.
// assay SK-ES-1, entry N#CCNC(=O)c1ccc(-c2ccnc(Nc3ccc(N4CCOCC4)cc3)n2)cc1 , relative viability value = 0.332

###

- Test system: RD-ES
- assayComment: relative viability vs DMSO control (72 h) (fraction); higher = more viable cells
- testSettings: 0.1235 µM
testReadout: relative viability
Answers are plain numbers.

Known results for compounds:
Clc1ccc(Nc2nnc(Cc3ccncc3)c3ccccc23)cc1 [Vatalanib]    0.965
O=C(Nc1nc2cccc(-c3ccc(CN4CCS(=O)(=O)CC4)cc3)n2n1)C1CC1 [Filgotinib]    0.949

Give me relative viability for each of these compounds, listed below.
1. C[C@]12O[C@H](C[C@]1(O)CO)n1c3ccccc3c3c4c(c5c6ccccc6n2c5c31)CNC4=O [Lestaurtinib]
2. C[C@H](Nc1ncnc2nc[nH]c12)c1cc2cccc(Cl)c2c(=O)n1-c1ccccc1 [Duvelisib]
3. N#CCNC(=O)c1ccc(-c2ccnc(Nc3ccc(N4CCOCC4)cc3)n2)cc1 [Momelotinib]

[0.497, 0.956, 0.955]

Batch of 2 compounds: report relative viability for each.
1. CCN1C(=O)N(c2c(F)c(OC)cc(OC)c2F)Cc2cnc3[nH]c(CN4CCOCC4)cc3c21 [Pemigatinib]
2. CN1CCN(c2ccc(C(=O)Nc3n[nH]c4ccc(Cc5cc(F)cc(F)c5)cc34)c(NC3CCOCC3)c2)CC1 [Entrectinib]

1: 0.952; 2: 0.99

Lab note: Cc1ccc(Nc2nccc(N(C)c3ccc4c(C)n(C)nc4c3)n2)cc1S(N)(=O)=O [Pazopanib] gave relative viability of 0.96

###

- Test system: G401
- assayComment: relative viability vs DMSO control (72 h) (fraction); higher = more viable cells
- testSettings: 10 µM
Field 'label' (enum: y / n). Set to y when relative viability is strictly under 0.6; else n.

N#CCNC(=O)c1ccc(-c2ccnc(Nc3ccc(N4CCOCC4)cc3)n2)cc1    y

Find out if reported relative viability for O=C1NC(=O)[C@@H](c2cn3c4c(cccc24)CCC3)[C@@H]1c1c[nH]c2ccccc12 [Tivantinib] is less than 0.6
y

Quick check: does Cc1cc2c(F)c(Oc3ncnn4cc(OC[C@@H](C)O)c(C)c34)ccc2[nH]1 have relative viability under 0.6?
n

relative viability strictly < 0.6 for this compound? C[C@]12O[C@H](C[C@]1(O)CO)n1c3ccccc3c3c4c(c5c6ccccc6n2c5c31)CNC4=O
y

A record lists CO[C@H]1C[C@@H]2CC[C@@H](C)[C@@](O)(O2)C(=O)C(=O)N2CCCC[C@H]2C(=O)O[C@H]([C@H](C)C[C@@H]2CC[C@@H](OCCO)[C@H](OC)C2)CC(=O)[C@H](C)/C=C(\C)[C@@H](O)[C@@H](OC)C(=O)[C@H](C)C[C@H](C)/C=C/C=C/C=C/1C . Is its relative viability below 0.6?
n

Please check: relative viability for CC1(C)CC=C(c2nc(C3CC(C)(C)OC(C)(C)C3)ccc2NC(=O)c2nc(C#N)c[nH]2)CC1 , strictly under 0.6 or not?
n

###

- Test system: KHOS-NP
- assayComment: relative viability vs DMSO control (72 h) (fraction); higher = more viable cells
- testSettings: 0.00152 µM
testReadout: relative viability

O=C(Nc1nc2cccc(-c3ccc(CN4CCS(=O)(=O)CC4)cc3)n2n1)C1CC1    1.1

Batch request: relative viability per item, same order as input.
1. Cc1cc2cc(Oc3ccnc(Nc4cccc(CS(=O)(=O)NCCN(C)C)c4)n3)ccc2[nH]1
2. Cc1cc2c(F)c(Oc3ncnn4cc(OC[C@@H](C)O)c(C)c34)ccc2[nH]1
3. O=C(Nc1ccc(OC(F)(F)Cl)cc1)c1cnc(N2CC[C@@H](O)C2)c(-c2cc[nH]n2)c1
4. CCN(CC)CCNC(=O)c1c(C)[nH]c(/C=C2\C(=O)Nc3ccc(F)cc32)c1C
5. O=S(=O)(c1cccc2cnccc12)N1CCCNCC1
6. CC(C)Oc1ccc(-c2nn([C@@H](C)c3oc4ccc(F)cc4c(=O)c3-c3cccc(F)c3)c3ncnc(N)c23)cc1F
7. Cn1cc(C2=C(c3cn(C4CCN(Cc5ccccn5)CC4)c4ccccc34)C(=O)NC2=O)c2ccccc21

1. 1.03
2. 1.05
3. 1.06
4. 1.05
5. 1.04
6. 1.09
7. 1.12

Give measured relative viability for every item shown.
1. COCCNc1cc(NC(=O)N2CCCc3cc(CN4CCN(C)CC4=O)c(C=O)nc32)ncc1C#N
2. CC#CC(=O)N1CCC[C@H]1c1nc(-c2ccc(C(=O)Nc3ccccn3)cc2)c2c(N)nccn12

1: 1.04; 2: 1.04

###

Assign relative viability to each entry below.
- System: RD
- assayComment: relative viability vs DMSO control (72 h) (fraction); higher = more viable cells
- testSettings: 0.04115 µM
Answers are plain numbers.

# count of solved cases: 10
COC(=O)N[C@@H](C)CNc1nccc(-c2cn(C(C)C)nc2-c2cc(Cl)cc(NS(C)(=O)=O)c2F)n1    1.01
CN1CC[C@@H](NC(=O)Nc2ccc(C#N)cc2)C[C@@H]1c1nc2ccccc2[nH]1    0.99
CO[C@H]1C[C@@H]2CC[C@@H](C)[C@@](O)(O2)C(=O)C(=O)N2CCCC[C@H]2C(=O)O[C@H]([C@H](C)C[C@@H]2CC[C@@H](OCCO)[C@H](OC)C2)CC(=O)[C@H](C)/C=C(\C)[C@@H](O)[C@@H](OC)C(=O)[C@H](C)C[C@H](C)/C=C/C=C/C=C/1C    0.823
CC1(COc2ccc3c(c2)ncn3-c2ccc3cccc(N4CCC(N)CC4)c3n2)COC1    1.05
CC(C)NC[C@@H](C(=O)N1CCN(c2ncnc3c2[C@H](C)C[C@H]3O)CC1)c1ccc(Cl)cc1    1.05
O=c1sn(-c2cccc3ccccc23)c(=O)n1Cc1ccccc1    1.13
CCN1C(=O)N(c2c(F)c(OC)cc(OC)c2F)Cc2cnc3[nH]c(CN4CCOCC4)cc3c21    1.04
COc1cc(Nc2ncc(F)c(Nc3ccc4c(n3)N(COP(=O)(O)O)C(=O)C(C)(C)O4)n2)cc(OC)c1OC    1.13
O=C1NC(=O)[C@@H](c2cn3c4c(cccc24)CCC3)[C@@H]1c1c[nH]c2ccccc12 [Tivantinib]    1.04
Clc1ccc(Nc2nnc(Cc3ccncc3)c3ccccc23)cc1    1.08

Now let's try a different one.
# value of relative viability, RD, item COC(=O)[C@@]1(O)C[C@H]2O[C@]1(C)n1c3ccccc3c3c4c(c5c6ccccc6n2c5c31)C(=O)NC4 [K-252a] = 1.13

###

Give relative viability for every item shown.
- Tested on: RD
- assayComment: relative viability vs DMSO control (72 h) (fraction); higher = more viable cells
- testSettings: 0.00152 µM
Answers are plain numbers.

# example entries with known answers
Cc1cc2c(F)c(Oc3ncnn4cc(OC[C@@H](C)O)c(C)c34)ccc2[nH]1    1.08
O=S(=O)(c1cccc2cnccc12)N1CCCNCC1    0.985
CCc1cnn2c(NCc3ccc[n+]([O-])c3)cc(N3CCCC[C@H]3CCO)nc12    0.821
CN1CCN(c2ccc(C(=O)Nc3n[nH]c4ccc(Cc5cc(F)cc(F)c5)cc34)c(NC3CCOCC3)c2)CC1    1.14
Cn1cc(C2=C(c3cn(C4CCN(Cc5ccccn5)CC4)c4ccccc34)C(=O)NC2=O)c2ccccc21    1.08

Batch of 2 compounds: report relative viability for each.
1. COCCNc1cc(NC(=O)N2CCCc3cc(CN4CCN(C)CC4=O)c(C=O)nc32)ncc1C#N
2. CC#CC(=O)N1CCC[C@H]1c1nc(-c2ccc(C(=O)Nc3ccccn3)cc2)c2c(N)nccn12

1.05
1.12

###

- Test system: SW1353
- assayComment: relative viability vs DMSO control (72 h) (fraction); higher = more viable cells
- testSettings: 10 µM
testReadout: relative viability
Give bare numbers.

Example entries begin here.
C[C@]12O[C@H](C[C@]1(O)CO)n1c3ccccc3c3c4c(c5c6ccccc6n2c5c31)CNC4=O [Lestaurtinib]    0.155
Cn1ncnc1[C@H]1c2n[nH]c(=O)c3cc(F)cc(c23)N[C@@H]1c1ccc(F)cc1 [Talazoparib]    0.633
Cc1cc2c(F)c(Oc3ncnn4cc(OC[C@@H](C)O)c(C)c34)ccc2[nH]1 [Brivanib]    0.997

Need relative viability for each of these molecules.
1. CC(C)NC[C@@H](C(=O)N1CCN(c2ncnc3c2[C@H](C)C[C@H]3O)CC1)c1ccc(Cl)cc1 [Ipatasertib]
2. O=S(=O)(c1cccc2cnccc12)N1CCCNCC1 [Fasudil]
3. O=C(Nc1ccc(OC(F)(F)Cl)cc1)c1cnc(N2CC[C@@H](O)C2)c(-c2cc[nH]n2)c1 [Asciminib]

1: 0.727; 2: 0.888; 3: 0.953
